system: MCF7; experiment: NCI tumour cell line growth inhibition, 48 h
Active and inactive are the calls of the source. Rule as the data show it: active = GI50 up to about 1.1 µM and inactive = higher.
API: response.call in y for active, n for inactive

COMPOUND	EXPERIMENTAL SYSTEM	GROUP LABEL
COc1cc(C(=O)C2C(=O)c3ccccc3C2C2(O)c3ccccc3CC2C(O)c2cc(OC)c(OC)c(OC)c2)cc(OC)c1OC (configuration not stated)	MCF7	n
COc1cc(/C=C2\C[C@H]3[C@@H]4CC=C5C[C@@H](O)CC[C@]5(C)[C@H]4CC[C@]3(C)[C@H]2O)cc(OC)c1OC	MCF7	n
CCCCSCc1nc2nc(Cl)c(Cl)nc2[nH]1	MCF7	n
O=C(O)CN1CCNCCN(CC(=O)O)CCN(CC(=O)O)CCNCC1	MCF7	n
COC(=O)C1=C(C(=O)OC)SC(=C2SCSC3=C2SC(C(=O)OC)=C(C(=O)OC)C32SC3=C(CCCC3)S2)S1	MCF7	n

Could you kindly confirm the outcome this assay logged for `c1ccc2cc(-c3cc(-c4cc(-c5ccc6ccccc6c5)on4)no3)ccc2c1` ?
n

Could you kindly confirm the outcome this assay logged for `Cc1nccn1S(=O)(=O)c1ccc(Cl)cc1` ?
n

Could you kindly confirm the outcome this assay logged for `C=C1[C@@H](C)[C@H]2[C@H](Cc3ccccc3)NC(=O)[C@]23OC(=O)/C=C/[C@H](O)CCC[C@@H](C)C/C=C/[C@H]3[C@@H]1O` ?
n

Could you kindly confirm the outcome this assay logged for `O=C(Nc1cc2c(=O)oc3ccccc3c2oc1=O)c1cccnc1` ?
n

Could you kindly confirm the outcome this assay logged for `CN(C)c1ccc(C=C2C(=O)NC(=S)NC2=O)c2ccccc12` ?
n

Could you kindly confirm the outcome this assay logged for `O=C1c2ccccc2-c2ccc(O)cc21` ?
n

Could you kindly confirm the outcome this assay logged for `COc1ccc(-c2c(C#N)c(-c3ccc(C)cc3)n(NS(=O)(=O)c3ccc(C)cc3)c(=O)c2C#N)cc1` ?
n

Could you kindly confirm the outcome this assay logged for `O=C(Nc1c(Cl)cccc1Cl)c1c(Cl)c(Cl)c(Cl)c(Cl)c1-c1nc2ccccc2[nH]1` ?
n

Could you kindly confirm the outcome this assay logged for `CC(=O)N(C(C)=O)c1cc2c3c(c1)CCCN3CCC2` ?
n

Could you kindly confirm the outcome this assay logged for `O=C1c2c(O)cccc2C(C(=O)CCCCC(=O)C2c3cccc(O)c3C(=O)c3c(O)cccc32)c2cccc(O)c21` ?
y
